Data origin, for the record: the supplement of paper PMC8728848

- tested-target: Neu5Ac(a2-3)Gal(b1-3)[Fuc(a1-4)]GlcNAc(b1-3)Gal(b1-3)[Fuc(a1-4)]GlcNAc
- protocol-text: glycan array binding signal (z-score within array); higher = stronger binding
- measurement-parameters: glycan notation: IUPAC condensed, linker removed
About 410 targets per protein were measured; listed, in parts, are those with the strongest signals and a random draw of the rest.
assay-endpoint: glycan array binding signal (z-score)
Give the figure by itself; no unit, no explanation.

Exercise: I'd like to know its glycan array binding signal (z-score). The binder in question is SP8524D-bot-399-27-399 (Bacteroides ovatus) (protein) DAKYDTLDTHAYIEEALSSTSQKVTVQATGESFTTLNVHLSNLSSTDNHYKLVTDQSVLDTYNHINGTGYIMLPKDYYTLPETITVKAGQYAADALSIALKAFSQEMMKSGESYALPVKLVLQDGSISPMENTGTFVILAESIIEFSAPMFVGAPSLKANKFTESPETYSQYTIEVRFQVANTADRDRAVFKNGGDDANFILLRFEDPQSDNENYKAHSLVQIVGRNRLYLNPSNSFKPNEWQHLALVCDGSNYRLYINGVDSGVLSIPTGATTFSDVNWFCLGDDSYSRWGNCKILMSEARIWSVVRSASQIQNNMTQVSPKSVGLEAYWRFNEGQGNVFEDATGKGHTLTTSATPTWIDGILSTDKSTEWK
Key: 0.014
